The reported measurements were obtained from ChEMBL document CHEMBL1287669.

# subjectOfTest: Protein deacetylase HDAC6 (Homo sapiens)
# Sequence (Q9UBN7 whole entry): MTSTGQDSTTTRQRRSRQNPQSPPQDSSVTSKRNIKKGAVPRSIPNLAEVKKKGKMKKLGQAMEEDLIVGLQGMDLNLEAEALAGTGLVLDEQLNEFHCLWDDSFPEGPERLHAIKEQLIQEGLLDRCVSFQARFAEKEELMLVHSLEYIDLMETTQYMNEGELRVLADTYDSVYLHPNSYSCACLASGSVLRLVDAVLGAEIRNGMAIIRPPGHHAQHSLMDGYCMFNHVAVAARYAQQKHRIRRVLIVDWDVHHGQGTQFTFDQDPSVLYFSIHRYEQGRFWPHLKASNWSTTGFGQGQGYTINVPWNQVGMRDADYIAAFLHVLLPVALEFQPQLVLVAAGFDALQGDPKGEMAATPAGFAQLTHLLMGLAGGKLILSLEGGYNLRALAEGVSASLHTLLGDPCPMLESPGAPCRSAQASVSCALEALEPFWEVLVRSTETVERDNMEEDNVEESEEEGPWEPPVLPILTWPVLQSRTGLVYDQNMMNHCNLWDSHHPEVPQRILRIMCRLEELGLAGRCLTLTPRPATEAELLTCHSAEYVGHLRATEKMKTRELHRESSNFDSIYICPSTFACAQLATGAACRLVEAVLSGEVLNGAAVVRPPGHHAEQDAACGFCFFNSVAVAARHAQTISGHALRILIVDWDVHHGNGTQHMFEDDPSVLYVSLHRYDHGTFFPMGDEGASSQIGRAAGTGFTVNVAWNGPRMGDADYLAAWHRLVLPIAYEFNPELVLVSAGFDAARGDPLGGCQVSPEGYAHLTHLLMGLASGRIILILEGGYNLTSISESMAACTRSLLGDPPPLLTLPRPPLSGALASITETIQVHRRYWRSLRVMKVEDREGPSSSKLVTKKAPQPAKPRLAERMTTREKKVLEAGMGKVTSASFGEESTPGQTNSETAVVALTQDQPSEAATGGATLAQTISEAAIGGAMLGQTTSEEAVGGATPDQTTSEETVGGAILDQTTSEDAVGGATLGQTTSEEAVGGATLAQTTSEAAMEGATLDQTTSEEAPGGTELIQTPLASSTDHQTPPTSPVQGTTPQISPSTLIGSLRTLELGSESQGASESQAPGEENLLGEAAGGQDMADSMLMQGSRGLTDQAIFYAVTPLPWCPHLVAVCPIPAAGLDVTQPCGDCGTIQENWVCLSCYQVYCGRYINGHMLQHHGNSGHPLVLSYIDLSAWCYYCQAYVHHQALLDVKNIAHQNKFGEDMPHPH
# testName: Inhibition of recombinant human HDAC6 using Boc-Lys(Ac)-AMC as substrate by fluorometric analysis
pIC50: −log10 of the molar value.
measuredMetric: pIC50

# compound, measuredResult
measured = [
    ("CC(C)(C)OC(=O)N[C@@H](CCCCCC(=O)NO)C(=O)NC1CCCC1", 7.59),
    ("CN(C)c1ccc(C(=O)N[C@@H](CCCCCC(=O)NO)C(=O)Nc2cccc3cccnc23)cc1", 6.03),
    ("CC(C)(C)OC(=O)N[C@@H](CCCCCS)C(=O)NC1CCCC1", 7.27),
    ("O=C(CCCCC[C@H](NC(=O)c1cc2ccccc2[nH]1)C(=O)Nc1cccc2cccnc12)NO", 6.97),
    ("CC(C)(C)OC(=O)N[C@@H](CCCCCO)C(=O)NC1CCCC1", 6.62),
]
